System: Botrytis cinerea
Assay: Fungicidal activity against Botryotinia fuckeliana assessed as germ-tube elongation inhibition at 50 ug/ml measured after 24 hr
Type: functional
Respond with met for inhibition at 50 µg/mL values of 60% and above, not met for values below.

Molecule Smiles | Discrete Label
CC1(C)CC(=O)C(S(=O)(=O)Nc2ccc(Br)cc2)=C(Nc2ccc(Br)cc2)C1 | met
CCCNC1=C(S(=O)(=O)NCCC)C(=O)CC(C)(C)C1 | not met
CC1(C)CC(=O)C(S(=O)(=O)Nc2ccccc2)=C(Nc2ccccc2)C1 | not met
CC1(C)CC(=O)C(S(=O)(=O)Nc2ccc(Cl)cc2C(F)(F)F)=C(Nc2ccc(Cl)cc2C(F)(F)F)C1 | not met
CC1(C)CC(=O)C(S(=O)(=O)Nc2ccc(Cl)c(Cl)c2)=C(Nc2ccc(Cl)c(Cl)c2)C1 | met
Cc1ccc(NC2=C(S(=O)(=O)Nc3ccc(C)cc3)C(=O)CC(C)(C)C2)cc1 | not met
O=C1CCCC(Nc2ccccc2Cl)=C1S(=O)(=O)Nc1ccccc1Cl | met
CC1(C)CC(=O)C(S(=O)(=O)Nc2ccccc2Cl)=C(Nc2ccccc2Cl)C1 | met

* * *

Test system: Botrytis cinerea
Test: Fungicidal activity against Botryotinia fuckeliana assessed as germ-tube elongation inhibition at 50 ug/ml measured after 24 hr
Type: functional
// reported inhibition at 50 µg/mL for each item listed

Molecule | Unit Abbreviation | inhibition at 50 µg/mL
Cc1ccc(NC2=C(S(=O)(=O)Nc3ccc(C)cc3)C(=O)CCC2)cc1 | % | 20.5
CC1(C)CC(=O)C(S(=O)(=O)Nc2ccc(Cl)cc2)=C(Nc2ccc(Cl)cc2)C1 | % | 78.6
CC1(C)CC(=O)C(S(=O)(=O)NCc2ccccc2)=C(NCc2ccccc2)C1 | % | 28.6
Cc1cc(F)ccc1NC1=C(S(=O)(=O)Nc2ccc(F)cc2C)C(=O)CC(C)(C)C1 | % | 42.9
Cc1ccccc1NC1=C(S(=O)(=O)Nc2ccccc2C)C(=O)CC(C)(C)C1 | % | 57.2
CC12CC1(C)C(=O)N(c1cc(Cl)cc(Cl)c1)C2=O (stereo not given) [PROCYMIDONE] | % | 100
CC1(C)CC(=O)C(S(=O)(=O)NC2CCCCC2)=C(NC2CCCCC2)C1 | % | 61.5
CC1(C)CC(=O)C(S(=O)(=O)Nc2cccc(Cl)c2)=C(Nc2cccc(Cl)c2)C1 | % | 58.6
CC1(C)CC(=O)C(S(=O)(=O)Nc2cccc(C(F)(F)F)c2)=C(Nc2cccc(C(F)(F)F)c2)C1 | % | 30.6
CC1(C)CC(=O)C(S(=O)(=O)Nc2cc(C(F)(F)F)cc(C(F)(F)F)c2)=C(Nc2cc(C(F)(F)F)cc(C(F)(F)F)c2)C1 | % | 61.5

Data origin: ChEMBL document CHEMBL3044660
